# tested.target: T1, Spy_(21-127) (UniProt P77754 44-150)
# T1 construct: Spy chaperone, residues 21-127; source: E. coli BL21 (DE3), purified (Ni-NTA, cation exchange, SEC); not shown: His6, N-terminal, cleaved; SUMO, N-terminal, cleaved
# T1 sequence (looked up): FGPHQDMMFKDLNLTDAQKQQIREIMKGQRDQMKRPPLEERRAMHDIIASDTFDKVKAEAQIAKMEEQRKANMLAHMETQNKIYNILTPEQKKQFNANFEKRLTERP
# assay.info: BLI; Octet RED96; client biotinylated and loaded on streptavidin sensors; Spy or Spy variant in solution at 0.25, 0.5, 1, 1.5 and 2 μM; 40 mM HEPES, 150 mM NaCl, pH 7.5; Kd calculated as koff/kon
# protocol.conditions: both partners purified
pKd: −log10 of the molar value.
endpoint.name: pKd

- binder: "Im7 H40W L53A I54A (natural protein, biotin (EZ-link NHS-biotin, 1:1 molar ratio of biotin to protein), Im7 (colicin E7 immunity protein) with H40W L53A I54A; Spy was made with an N-terminal His6-SUMO tag that was cleaved; also called Im7AAW; partially folded client; source: purified by a similar procedure to Spy) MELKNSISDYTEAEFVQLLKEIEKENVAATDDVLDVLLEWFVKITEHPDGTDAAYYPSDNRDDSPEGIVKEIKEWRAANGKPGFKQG"
  endpoint.name: "pKd"
  experimental.result: 5.70
